Answer each item with its documented Population Mitochondria Different-Phenotype (%).
# Tested on: HEK-293T
# PROTOCOL DETAILS: Multiplex assay against HEK293T
# Assay type: toxicity, cell-based
# CONDITION PARAMETERS: human, 12 h, 1 µM, compound concentration 1 uM, replicate 1
Numbers only, in %.

For this compound ( `Cc1cc(C)cc(-c2cnc3cc(Cl)c(-c4cccc(O)c4)cc3c2OCCCN)c1` ), measured Population Mitochondria Different-Phenotype (%) is 95

Answer for every listed entry: what is its Population Mitochondria Different-Phenotype (%)? The entries follow.
1. c1cn2cc(-c3ccc4cn[nH]c4c3)nc(Nc3ccc(N4CCOCC4)cc3)c2n1
2. CCN(CC)CCCCNc1ncc2cc(-c3cc(OC)cc(OC)c3)c(NC(=O)NC(C)(C)C)nc2n1

Response:
1: 95; 2: 31

---

# Tested on: U2OS
# PROTOCOL DETAILS: Multiplex assay against U2OS
# Type: toxicity, cell-based
# CONDITION PARAMETERS: human, 24 h, 10 µM, compound concentration 10 uM, replicate 1
Field 'label' (enum: fulfilled / not fulfilled). Set to fulfilled when Population Fragmented Nuclei (%) is strictly under 30%; else not fulfilled.

Solved cases (4 shown):
Request: Please determine if Cl.N#Cc1ccc2[nH]cc(CCCCN3CCN(c4ccc5oc(C(N)=O)cc5c4)CC3)c2c1 [VILAZODONE HYDROCHLORIDE] is below 30% in terms of Population Fragmented Nuclei (%).
Response: fulfilled

Request: Please determine if `Cc1csc2c(N[C@@H](C)CN3CCN(S(=O)(=O)c4ccc(Cl)c(Cl)c4)CC3)ncnc12` is below 30% in terms of Population Fragmented Nuclei (%).
Response: fulfilled

Request: Please determine if `CCN(CC)CCCCNc1ncc2cc(-c3cc(OC)cc(OC)c3)c(NC(=O)NC(C)(C)C)nc2n1` is below 30% in terms of Population Fragmented Nuclei (%).
Response: fulfilled

Request: Please determine if `COc1ncc(-c2ccc3nccc(-c4ccnnc4)c3c2)cc1NS(=O)(=O)c1ccc(F)cc1F` is below 30% in terms of Population Fragmented Nuclei (%).
Response: not fulfilled

As a next step, examine the molecule that follows.
Request: Please determine if `COc1cc(-n2cnc3cc(-c4ccc(Cl)cc4)sc3c2=O)ccc1OCCN1CCCC1` is below 30% in terms of Population Fragmented Nuclei (%).
Response: not fulfilled

---

# Test system: U2OS
# PROTOCOL DETAILS: Multiplex assay against U2OS
# Assay type: toxicity, cell-based
# CONDITION PARAMETERS: human, 24 h, 1 µM, compound concentration 1 uM, replicate 1
Answer each item with its documented Population Membrane Permeable-Phenotype (%).
One number for each entry, in %.

Consider the reported Population Membrane Permeable-Phenotype (%) for these compounds:
For this compound ( `CN1CCN(c2ccc(OC(F)(F)F)c(Nc3ncc4c(n3)-c3c(c(C(N)=O)nn3CCO)CC4)c2)CC1` ), measured Population Membrane Permeable-Phenotype (%) is 12

For this compound ( CN1CCCC(n2nc(Cc3ccc(Cl)cc3)c3ccccc3c2=O)CC1.Cl (stereo not drawn) [AZELASTINE HYDROCHLORIDE] ), measured Population Membrane Permeable-Phenotype (%) is 5

For this compound ( COc1cccc([C@@H](C)NCCCc2ccccc2Cl)c1.Cl [TECALCET HYDROCHLORIDE] ), measured Population Membrane Permeable-Phenotype (%) is 3

For this compound ( `Cn1cc(-c2[nH]c3cc(NC(=O)[C@H](N)C4CCCCC4)cc4c3c2C=NNC4=O)cn1` ), measured Population Membrane Permeable-Phenotype (%) is 5

Answer for every listed entry: what is its Population Membrane Permeable-Phenotype (%)? The entries follow.
1. CN1CCN(CCOc2cc(OC3CCOCC3)c3c(Nc4c(Cl)ccc5c4OCO5)ncnc3c2)CC1
2. O=C1NCN(c2ccccc2)C12CCN(CCCOc1ccc(F)cc1)CC2 [SPIRAMIDE]
3. COc1ncc(-c2ccc3nccc(-c4ccnnc4)c3c2)cc1NS(=O)(=O)c1ccc(F)cc1F
4. CC[C@H](C)C(=O)O[C@H]1C[C@@H](C)C=C2C=C[C@H](C)[C@H](CC[C@@H]3C[C@@H](O)CC(=O)O3)[C@H]21

Response:
4
0
5
6

All figures here come from ChEMBL document CHEMBL4689842.
